Hello, the source for this data is the antibiotic and cytotoxicity screens of Wong et al. (2023), in case you need it.

Tested on: HepG2
measurementDescription: cytotoxicity call (relative viability < 0.9)
settings: 10 µM
About 3,300 (8.5%) of roughly 39,000 compounds were called active. Shown is part of a subset that was picked to be rich in actives.
Tick one outcome: active, inactive

Example entries and their recorded answers appear below.
C[C@@H]1CN([C@@H](C)CO)C(=O)c2cc(NC(=O)CCC(F)(F)F)ccc2O[C@@H](C)CCCCO[C@H]1CN(C)C(=O)Nc1ccc(C(F)(F)F)cc1	inactive
CC[C@@](N)(C(=O)O)c1ccccc1	inactive
C[C@@H]1CCCCO[C@H](CN(C)C(=O)Nc2ccc(C(F)(F)F)cc2)[C@H](C)CN([C@@H](C)CO)C(=O)c2cc(NC(=O)CCC(F)(F)F)ccc2O1	active
C[C@@H]1CCCCO[C@H](CN(C)C(=O)Nc2ccc(C(F)(F)F)cc2)[C@H](C)CN([C@H](C)CO)C(=O)c2cc(NC(=O)CCC(F)(F)F)ccc2O1	inactive
C[C@@H]1CCCCO[C@@H](CN(C)C(=O)Nc2ccc(C(F)(F)F)cc2)[C@H](C)CN([C@@H](C)CO)C(=O)c2cc(NC(=O)CCC(F)(F)F)ccc2O1	inactive

Prompt: Write down the call the test reported for this molecule. Item: C[C@H](CO)N1C[C@H](C)[C@@H](CN(C)C(=O)Nc2ccc(C(F)(F)F)cc2)OCCCC[C@H](C)Oc2ccc(NC(=O)CCC(F)(F)F)cc2C1=O
Completion: active
